FYI, the data here is from patent US20250084056A1.

molecular target: Cyclin E1 (Homo sapiens, UniProt P24864+Q96SW2); experiment: Cyclin E1 Cellular Degradation Assay (MSD); format: cell-based; set-up: endogenous in cells; host or cells: OVCAR3; details: selectivity for degradation of Cyclin E1 over GSPT1
Sequence (P24864 whole entry): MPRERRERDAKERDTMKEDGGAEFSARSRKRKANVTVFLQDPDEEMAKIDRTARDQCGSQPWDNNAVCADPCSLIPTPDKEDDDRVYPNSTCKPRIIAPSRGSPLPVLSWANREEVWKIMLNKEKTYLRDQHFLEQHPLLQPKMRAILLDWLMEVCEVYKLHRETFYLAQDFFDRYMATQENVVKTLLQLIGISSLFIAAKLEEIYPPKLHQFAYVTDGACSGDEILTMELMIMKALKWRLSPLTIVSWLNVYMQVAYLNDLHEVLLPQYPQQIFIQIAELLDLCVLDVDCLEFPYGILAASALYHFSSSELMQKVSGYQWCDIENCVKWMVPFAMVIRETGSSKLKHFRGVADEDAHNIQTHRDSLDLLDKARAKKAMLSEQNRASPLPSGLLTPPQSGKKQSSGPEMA
Sequence (Q96SW2 whole entry): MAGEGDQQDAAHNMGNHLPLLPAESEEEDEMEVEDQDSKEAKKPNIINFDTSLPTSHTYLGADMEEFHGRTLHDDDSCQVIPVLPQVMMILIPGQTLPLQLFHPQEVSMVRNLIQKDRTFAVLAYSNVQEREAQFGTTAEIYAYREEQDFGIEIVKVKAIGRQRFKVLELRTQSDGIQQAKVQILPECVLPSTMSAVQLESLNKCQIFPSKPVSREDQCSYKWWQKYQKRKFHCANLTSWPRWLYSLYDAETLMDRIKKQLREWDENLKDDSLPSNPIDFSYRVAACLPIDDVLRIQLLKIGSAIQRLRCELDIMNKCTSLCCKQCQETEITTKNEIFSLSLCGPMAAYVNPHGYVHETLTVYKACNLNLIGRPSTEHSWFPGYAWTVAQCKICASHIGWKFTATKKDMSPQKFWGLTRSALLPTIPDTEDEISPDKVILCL
Sequence (Q16531 whole entry partner): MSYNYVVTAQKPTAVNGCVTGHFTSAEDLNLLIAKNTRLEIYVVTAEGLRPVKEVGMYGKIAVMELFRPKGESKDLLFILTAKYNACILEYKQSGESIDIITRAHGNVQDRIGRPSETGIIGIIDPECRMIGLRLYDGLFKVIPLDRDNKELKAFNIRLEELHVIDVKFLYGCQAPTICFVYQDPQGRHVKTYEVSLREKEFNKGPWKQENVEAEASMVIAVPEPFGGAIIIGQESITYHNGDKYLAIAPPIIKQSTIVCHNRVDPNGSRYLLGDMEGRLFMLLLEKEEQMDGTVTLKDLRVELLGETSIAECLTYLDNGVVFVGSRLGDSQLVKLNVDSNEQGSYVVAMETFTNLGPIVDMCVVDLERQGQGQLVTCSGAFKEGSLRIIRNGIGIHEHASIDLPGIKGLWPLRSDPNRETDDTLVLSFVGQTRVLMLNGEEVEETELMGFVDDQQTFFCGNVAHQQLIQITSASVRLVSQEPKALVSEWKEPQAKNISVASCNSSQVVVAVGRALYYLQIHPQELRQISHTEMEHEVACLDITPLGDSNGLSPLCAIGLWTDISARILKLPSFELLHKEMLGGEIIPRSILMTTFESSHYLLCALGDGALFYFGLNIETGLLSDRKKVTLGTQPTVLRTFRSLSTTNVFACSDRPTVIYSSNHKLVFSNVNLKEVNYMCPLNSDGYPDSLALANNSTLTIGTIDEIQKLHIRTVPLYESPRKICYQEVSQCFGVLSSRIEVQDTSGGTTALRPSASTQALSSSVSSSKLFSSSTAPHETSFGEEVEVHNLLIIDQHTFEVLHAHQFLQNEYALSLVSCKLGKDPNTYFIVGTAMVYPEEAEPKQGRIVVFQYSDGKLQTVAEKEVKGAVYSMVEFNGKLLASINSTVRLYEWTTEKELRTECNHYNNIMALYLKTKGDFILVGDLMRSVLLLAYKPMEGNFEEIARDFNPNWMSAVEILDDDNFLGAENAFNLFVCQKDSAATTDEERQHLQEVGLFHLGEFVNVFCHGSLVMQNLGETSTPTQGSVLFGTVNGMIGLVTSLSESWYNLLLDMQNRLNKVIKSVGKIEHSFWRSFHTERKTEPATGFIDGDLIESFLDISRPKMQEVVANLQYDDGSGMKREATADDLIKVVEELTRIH
For each of the compounds below, state its Ratio of GSPT1 DC50/Cyclin E1 DC50.

>>> result("CC(C)(O)COc1c(COC(=O)Nc2ccc(Oc3cc(F)cc(F)c3)cc2F)ccc2c1C(=O)N(C1CCC(=O)NC1=O)C2 (stereo not shown) [Example 164]")
">187"
>>> result("COc1cccc(Oc2ccc(NC(=O)OCc3ccc4c(c3OC)C(=O)N(C3CCC(=O)NC3=O)C4)cc2)c1 (stereo not shown) [Example 32]")
">208"
>>> result("O=C1CCC(N2Cc3ccc(COC(=O)Nc4ccc(Oc5cc(F)c(F)c(F)c5)cc4F)c(O[C@@H]4CCCOC4)c3C2=O)C(=O)N1 (stereo partly shown) [Example 150]")
">77"

Note: attention shifts to another entry.
Suppose we examine the compound COc1c(COC(=O)Nc2ccc(Oc3cccc(Cl)c3Cl)cc2F)ccc2c1C(=O)N(C1CCC(=O)NC1=O)C2 (stereo not shown) [Example 116] ; what Ratio of GSPT1 DC50/Cyclin E1 DC50 value has been reported?
>160

###

Consider the following compounds; for each one, report its IC50.
test system: Phospho-Rb (Ser807/811); experiment: Phospho-Retinoblastoma (pRB) Cellular Assay; assay type: cell-based; conditions: Homo sapiens, OVCAR-3; NIH OVCAR3 cells, 24 hours; concentration giving 50% response
One number for each entry, in nM.

Here are 3 compounds together with their reported answers.
>>> readout_number("O=C1CCC(N2Cc3ccc(COC(=O)Nc4ccc(Oc5ccc(F)cc5F)cc4)c(Oc4ccccc4)c3C2=O)C(=O)N1 (stereo not shown) [Example 67]")
144
>>> readout_number("COc1c(COC(=O)Nc2ccc(Oc3c(F)cccc3F)cc2)ccc2c1C(=O)N(C1CCC(=O)NC1=O)C2 (stereo not shown) [Example 112]")
46
>>> readout_number("O=C1CCC(N2Cc3ccc(COC(=O)Nc4ccc(Oc5cc(F)cc(F)c5)cc4F)c(O[C@@H]4CCCOC4)c3C2=O)C(=O)N1 (stereo partly shown) [Example 149]")
71

Kindly give each listed record's IC50.
1. O=C1CCC(N2Cc3ccc(COC(=O)Nc4ccc(Oc5ccccc5Cl)cc4)c(Oc4ccccc4)c3C2=O)C(=O)N1 (stereo not shown) [Example 66]
2. O=C1CCC(N2Cc3ccc(COC(=O)Nc4ccc(Oc5ccccc5)cc4)c(Oc4ccccc4)c3C2=O)C(=O)N1 (stereo not shown) [Example 62]
3. O=C1CCC(N2Cc3ccc(COC(=O)Nc4ccc(Oc5ccc(F)cc5F)cc4)c(OC4CCOCC4)c3C2=O)C(=O)N1 (stereo not shown) [Example 139]
4. CC(C)Oc1c(COC(=O)Nc2ccc(Oc3ccc(F)cc3Cl)cc2)ccc2c1C(=O)N(C1CCC(=O)NC1=O)C2 (stereo not shown) [Example 124]

1: 55; 2: 676; 3: 27; 4: 163

###

I'd be grateful if you could share measured DC50 for these entries.
biological target: Cyclin E1 (Homo sapiens, UniProt P24864+Q96SW2); test: Cyclin E1 Cellular Degradation Assay (MSD); format: cell-based; set-up: endogenous in cells; host or cells: OVCAR3; conditions: Cyclin E1 cellular degradation
Give bare numbers, in nM.

>>> readout_number("COc1c(COC(=O)Nc2ccc(Oc3cc(Cl)cc(Cl)c3)cc2F)ccc2c1C(=O)N(C1CCC(=O)NC1=O)C2 (centres unmarked) [Example 118]")
417

Quick one: give me DC50 for each item below, same order please.
1. O=C1CCC(N2Cc3ccc(COC(=O)Nc4ccc(Oc5ccc(F)cc5)cc4F)c(OC4CCOCC4)c3C2=O)C(=O)N1 (centres unmarked) [Example 135]
2. COc1c(COC(=O)Nc2ccc(Oc3ccccc3C(F)F)cc2F)ccc2c1C(=O)N(C1CCC(=O)NC1=O)C2 (centres unmarked) [Example 86]
3. COc1c(COC(=O)Nc2ccc(Oc3ccc(Cl)c(Cl)c3)cc2F)ccc2c1C(=O)N(C1CCC(=O)NC1=O)C2 (centres unmarked) [Example 117]
4. COc1c(COC(=O)Nc2ccc(Oc3c(F)cccc3F)cc2)ccc2c1C(=O)N(C1CCC(=O)NC1=O)C2 (centres unmarked) [Example 112]

1. 17
2. 205
3. 104
4. 226

# map each molecule to its DC50
1. CC(C)(O)COc1c(COC(=O)Nc2ccc(Oc3ccc(F)cc3)cc2F)ccc2c1C(=O)N(C1CCC(=O)NC1=O)C2 (centres unmarked) [Example 162]
2. COc1cc(Oc2ccc(F)c(C)c2)ccc1NC(=O)OCc1ccc2c(c1OC)C(=O)N(C1CCC(=O)NC1=O)C2 (centres unmarked) [Example 97]
3. O=C1CCC(N2Cc3ccc(COC(=O)Nc4ccc(Oc5ccc(F)c(F)c5)cc4)c(O[C@@H]4CCCOC4)c3C2=O)C(=O)N1 (some centres unmarked) [Example 141]
4. O=C1CCC(N2Cc3ccc(COC(=O)Nc4ccc(Oc5ccc(F)c(F)c5)cc4F)c(OC4CCOCC4)c3C2=O)C(=O)N1 (centres unmarked) [Example 132]
5. COCCOc1c(COC(=O)Nc2ccc(Oc3ccc(F)c(F)c3)cc2)ccc2c1C(=O)N(C1CCC(=O)NC1=O)C2 (centres unmarked) [Example 168]
6. [2H]C1([2H])C(=O)NC(=O)[C@@]([2H])(N2Cc3ccc(COC(=O)Nc4ccc(Oc5ccc(F)c(F)c5)cc4)c(OC)c3C2=O)C1([2H])[2H] [Example 180]
7. CC(C)Oc1c(COC(=O)Nc2ccc(Oc3ccc(F)c(F)c3)cc2)ccc2c1C(=O)N(C1CCC(=O)NC1=O)C2 (centres unmarked) [Example 56]
8. COc1c(COC(=O)Nc2ccc(Oc3ccccc3F)cc2)ccc2c1C(=O)N(C1CCC(=O)NC1=O)C2 (centres unmarked) [Example 79]

[27, 357, 34, 20, 62, 60, 159, 375]

Give its DC50 value. Item: O=C1CCC(N2Cc3ccc(COC(=O)Nc4ccc(Oc5ccccc5F)cc4)c(Oc4ccccc4)c3C2=O)C(=O)N1 (centres unmarked) [Example 65]
164
